biological target: Coagulation factor XI (Homo sapiens)
Sequence (P03951 19-387 limits assumed): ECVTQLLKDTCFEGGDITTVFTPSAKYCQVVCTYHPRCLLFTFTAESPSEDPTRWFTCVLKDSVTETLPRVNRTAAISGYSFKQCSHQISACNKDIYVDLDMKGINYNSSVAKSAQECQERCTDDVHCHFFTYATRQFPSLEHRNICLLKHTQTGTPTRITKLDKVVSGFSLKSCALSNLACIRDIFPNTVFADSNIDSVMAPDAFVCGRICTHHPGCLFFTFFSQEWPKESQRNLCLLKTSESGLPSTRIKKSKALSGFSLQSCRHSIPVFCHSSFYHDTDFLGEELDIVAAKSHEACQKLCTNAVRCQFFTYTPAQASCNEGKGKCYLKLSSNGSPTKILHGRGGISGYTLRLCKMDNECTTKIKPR
Sequence (P03951 388-625 limits assumed): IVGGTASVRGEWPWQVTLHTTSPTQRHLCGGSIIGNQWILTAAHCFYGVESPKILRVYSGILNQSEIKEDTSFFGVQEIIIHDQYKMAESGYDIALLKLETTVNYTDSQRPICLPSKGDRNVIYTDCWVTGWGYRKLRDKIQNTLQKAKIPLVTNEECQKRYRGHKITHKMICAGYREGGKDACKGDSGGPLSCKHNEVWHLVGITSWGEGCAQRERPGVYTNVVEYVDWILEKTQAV
MEASUREMENT_KIND: Ki (nM)

[[record]]
chemical_string = "O=C(N[C@@H](Cc1ccccc1)C(=O)NCc1cc2cc(Cl)ccc2[nH]c1=O)c1ccc2[nH]c(=O)cc(O)c2c1"
system = "Coagulation factor XI (Homo sapiens)"
observed_result = 0.5


###

experiment: Inhibition of DNA gyrase B (unknown origin)
MEASUREMENT_KIND: IC50 (nM)

[[record]]
chemical_string = "Cc1cc(-c2cc(NC(=O)c3ccc(C(=O)O)cc3C)[nH]n2)cc(C(F)(F)F)c1"
measurement_kind = "IC50"
observed_result = 160


###

experiment: Inhibition of Streptococcus pneumoniae NAD+-dependent DNA ligase A
pIC50: −log10 of the molar value.
Listing of recorded pIC50 by entry.
MEASUREMENT_KIND: pIC50

[[record]]
chemical_string = "Cc1ccc2cc(C(N)=O)cc(O)c2n1"
value_qualifier = "<"
observed_result = 3.30

[[record]]
chemical_string = "CC(C)(C)c1nc(-c2ccc[nH]2)c2cc(C(N)=O)c(N)nc2n1"
value_qualifier = "="
observed_result = 7.00


Origin of the recorded values: ChEMBL document CHEMBL3860096
